Each record here notes measured pIC50.
target: cGAS (Homo sapiens, UniProt Q8N884); assay: Cellular assay to measure cGAS activity (IFNb AlphaLISA in THP1 cells stimulated by RDG-Adenovirus-GFP); assay type: cell-based; parameters: host or cells: THP1 cells differentiated with PMA and stimulated with RDG-Adenovirus-GFP; settings: PMA-differentiated THP1 cells, RDG-Adenovirus-GFP at 1000 MOI; inhibition of IFNb production as marker for cGAS activity
Sequence (Q8N884 whole entry): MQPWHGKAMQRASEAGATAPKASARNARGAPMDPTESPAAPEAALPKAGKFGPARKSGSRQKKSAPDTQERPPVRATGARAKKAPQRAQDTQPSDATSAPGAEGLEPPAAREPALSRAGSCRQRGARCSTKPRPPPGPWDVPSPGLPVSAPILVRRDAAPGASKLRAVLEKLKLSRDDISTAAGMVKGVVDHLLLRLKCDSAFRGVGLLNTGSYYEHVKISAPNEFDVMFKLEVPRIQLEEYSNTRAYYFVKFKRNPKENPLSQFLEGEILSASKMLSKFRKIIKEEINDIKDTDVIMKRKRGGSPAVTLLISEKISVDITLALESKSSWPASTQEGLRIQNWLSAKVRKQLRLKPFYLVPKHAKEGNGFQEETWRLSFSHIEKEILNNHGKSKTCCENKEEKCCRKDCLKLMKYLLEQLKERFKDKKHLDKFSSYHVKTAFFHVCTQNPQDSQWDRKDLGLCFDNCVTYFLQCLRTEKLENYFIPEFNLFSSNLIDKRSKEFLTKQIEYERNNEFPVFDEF
pIC50: −log10 of the molar value.

>  <molecule>
COCCC1CNC(=O)Cc2c1[nH]c1c(Cl)c(Cl)cc(-c3cnn(C)n3)c21 (racemic)

>  <lt.gt.eq>
=

>  <pIC50>
5.99

$$$$
>  <molecule>
CC1C(=O)NCCc2[nH]c3c(Cl)c(Cl)cc(NCCC(F)F)c3c21 (centres unmarked)

>  <lt.gt.eq>
=

>  <pIC50>
5.63

$$$$
>  <molecule>
COCC(=O)Nc1cc(Cl)c(Cl)c2[nH]c3c(c12)C(C)C(=O)NCC3 (centres unmarked)

>  <lt.gt.eq>
=

>  <pIC50>
6.05

$$$$
>  <molecule>
Cn1ncc(-c2cc(Cl)c(Cl)c3[nH]c4c(c23)CC(=O)NCC4CC(=O)O)n1 (racemic)

>  <lt.gt.eq>
<

>  <pIC50>
5.00

$$$$
>  <molecule>
CN(C)C(=O)CC1CNC(=O)Cc2c1[nH]c1c(Cl)c(Cl)cc(-c3cnn(C)n3)c21 (centres unmarked)

>  <lt.gt.eq>
=

>  <pIC50>
6.18

$$$$
